# test details: body weight gain in the adjuvant induced arthritis test in the rat
# Format: in vivo, rat (Royal Hart, Wistar strain)
# test settings: oral 50 mg/kg once daily, day 21
parameter measured: Body Weight Gain in Grams

Study these solved cases before continuing.
record smiles: N#CCC(=O)c1ccccc1
parameter measured: Body Weight Gain in Grams
recorded value: 62 Grams
--
record smiles: N#CCC(=O)c1ccc(F)cc1
parameter measured: Body Weight Gain in Grams
recorded value: 77 Grams
--
record smiles: N#CCC(=N)c1ccccc1
parameter measured: Body Weight Gain in Grams
recorded value: 80 Grams

Give Body Weight Gain in Grams for the following molecule: N#CC=C(N)c1cccs1 66 Grams

Value source: patent US4325949A
